- TEST NAME: in vitro
- RUN PARAMETERS: African green monkey
Rule: CC50 below 300 µM gives Fulfilled, anything at or above gives Not fulfilled.

Q. Consider the compound CCOC(=O)C1=C[C@@H](OC(CC)CC)[C@H](NC(C)=O)[C@@H](N)C1 . Is its CC50 strictly less than 300 µM?
A. Not fulfilled

Q. Thanks! And COC(=O)N[C@H](C(=O)N1CCC[C@H]1c1nc(-c2ccc(-c3ccc(-c4c[nH]c([C@@H]5CCCN5C(=O)[C@@H](NC(=O)OC)C(C)C)n4)cc3)cc2)c[nH]1)C(C)C ?
A. Not fulfilled

Q. Thanks! And CCN(CC)CCCC(C)Nc1ccnc2cc(Cl)ccc12 (stereo not shown) ?
A. Fulfilled

Q. Thanks! And CCC(CC)COC(=O)[C@H](C)N[P@](=O)(OC[C@H]1O[C@@](C#N)(c2ccc3c(N)ncnn23)[C@H](O)[C@@H]1O)Oc1ccccc1 ?
A. Not fulfilled

Q. Thanks! And Cc1ccnc2c1NC(=O)c1cccnc1N2C1CC1 ?
A. Fulfilled

Q. Thanks! And CC(=O)N[C@H]1[C@H]([C@H](O)[C@H](O)CO)OC(C(=O)O)=C[C@@H]1N=C(N)N ?
A. Not fulfilled

Q. Thanks! And NC(=O)c1ncn([C@@H]2O[C@H](CO)[C@@H](O)[C@H]2O)n1 ?
A. Fulfilled

Q. Thanks! And CC(C)[C@H](N)C(=O)OCC(CO)OCn1cnc2c(=O)nc(N)[nH]c21 (stereo partly shown) ?
A. Not fulfilled

Q. Thanks! And Nc1nc2c(ncn2CCC(CO)CO)c(=O)[nH]1 ?
A. Fulfilled

Q. Thanks! And C=C1[C@H](CO)[C@@H](O)C[C@@H]1n1cnc2c(=O)[nH]c(N)nc21 ?
A. Not fulfilled

====

For each entry below, report its CC50 value.
- TEST NAME: in vitro
- RUN PARAMETERS: African green monkey
Give the number; µM is assumed, so skip it.

Q. Form field: reported CC50 of Nc1nc2c(ncn2COCCO)c(=O)[nH]1
A. 332

Q. Thanks! And COC[C@H]1C[C@@H](c2ncc(-c3ccc4c(c3)COc3cc5c(ccc6nc([C@@H]7CC[C@H](C)N7C(=O)[C@@H](NC(=O)OC)C(C)C)[nH]c65)cc3-4)[nH]2)N(C(=O)[C@H](NC(=O)OC)c2ccccc2)C1 ?
A. 316

Q. Thanks! And C[C@@H]1CCO[C@H]2Cn3cc(C(=O)NCc4ccc(F)cc4F)c(=O)c(O)c3C(=O)N12 ?
A. 160

====

For each entry below, report its selectivity ratio value.
- Test system: MPXV strain MOH-NRC-0002/2022, clade II lineage A.2.1
- TEST NAME: in vitro
- RUN PARAMETERS: African green monkey, SI (selectivity safety index = CC50/IC50)
Number, no unit, nothing else.

Q. Form field: reported selectivity ratio of COC(=O)N[C@H](C(=O)N1CCC[C@H]1c1nc(-c2ccc(-c3ccc(-c4c[nH]c([C@@H]5CCCN5C(=O)[C@@H](NC(=O)OC)C(C)C)n4)cc3)cc2)c[nH]1)C(C)C
A. 1.99

Q. Thanks! And NC(=O)c1ncn([C@@H]2O[C@H](CO)[C@@H](O)[C@H]2O)n1 ?
A. 1.83

Q. Thanks! And CCOC(=O)C1=C[C@@H](OC(CC)CC)[C@H](NC(C)=O)[C@@H](N)C1 ?
A. 4.6

Q. Thanks! And C=C1[C@H](CO)[C@@H](O)C[C@@H]1n1cnc2c(=O)[nH]c(N)nc21 ?
A. 12

Q. Thanks! And CC(C)[C@H](N)C(=O)OCCOCn1cnc2c(=O)[nH]c(N)nc21 ?
A. 5.42

Q. Thanks! And Nc1nc(NC2CC2)c2ncn([C@H]3C=C[C@@H](CO)C3)c2n1 ?
A. 5.46

Q. Thanks! And Cc1ccnc2c1NC(=O)c1cccnc1N2C1CC1 ?
A. 2.61

Q. Thanks! And NC12CC3CC(CC(C3)C1)C2 ?
A. 15.2

Q. Thanks! And Nc1nc2c(ncn2CCC(CO)CO)c(=O)[nH]1 ?
A. 3.95

Q. Thanks! And CC(=O)N[C@H]1[C@H]([C@H](O)[C@H](O)CO)OC(C(=O)O)=C[C@@H]1N=C(N)N ?
A. 1.9

Q. Thanks! And CCN(CC)CCCC(C)Nc1ccnc2cc(Cl)ccc12 (stereo not drawn) ?
A. 2.47

Q. Thanks! And CC(C)[C@H](N)C(=O)OCC(CO)OCn1cnc2c(=O)nc(N)[nH]c21 (stereo partly drawn) ?
A. 5.36

Q. Thanks! And C[C@@H]1CCO[C@H]2Cn3cc(C(=O)NCc4ccc(F)cc4F)c(=O)c(O)c3C(=O)N12 ?
A. 7.82

Q. Thanks! And CCN(CCO)CCCC(C)Nc1ccnc2cc(Cl)ccc12 (stereo not drawn) [Hydroxychloroquine] ?
A. 7.41

Q. Thanks! And CC(C)OC(=O)[C@H](C)N[P@](=O)(OC[C@H]1O[C@@H](n2ccc(=O)[nH]c2=O)[C@](C)(F)[C@@H]1O)Oc1ccccc1 ?
A. 0.61

Q. Thanks! And Cc1cn([C@H]2C[C@H](N=[N+]=[N-])[C@@H](CO)O2)c(=O)[nH]c1=O ?
A. 2.29

Q. Thanks! And COC[C@H]1C[C@@H](c2ncc(-c3ccc4c(c3)COc3cc5c(ccc6nc([C@@H]7CC[C@H](C)N7C(=O)[C@@H](NC(=O)OC)C(C)C)[nH]c65)cc3-4)[nH]2)N(C(=O)[C@H](NC(=O)OC)c2ccccc2)C1 ?
A. 0.95

Q. Thanks! And NC(=O)c1nc(F)c[nH]c1=O ?
A. 3.41

====

- Test system: Vero-E6 cells
- RUN PARAMETERS: African green monkey
REPORTED PROPERTY: CC50 (µM)
Give the number; µM is assumed, so skip it.

Q. Form field: reported CC50 of CCOC(=O)C1=C[C@@H](OC(CC)CC)[C@H](NC(C)=O)[C@@H](N)C1 [Oseltamivir]
A. 269
